Reported IC50 values, Factor XIa (Homo sapiens).
Answers are plain numbers, in nM.

Completed entries (count: 5):
1) O=C(Nc1ccc(-c2nc(=O)o[nH]2)cc1F)[C@@H]1CCC2CC(c3c(-n4cnnn4)ccc(Cl)c3F)=CC(=O)N21 (mixture of isomers) [ID No. 47] :: 23.3
2) CC1C[C@@H](C(=O)Nc2ccc3nccnc3c2)N2C(=O)C=C(c3c(-n4cnnn4)ccc(Cl)c3F)CC12 (mixture of isomers) [ID No. 85] :: 9.9
3) CC1C[C@@H](C(=O)Nc2ccc3ncccc3c2)N2C(=O)C=C(c3c(-n4cnnn4)ccc(Cl)c3F)CC12 (mixture of isomers) [ID No. 82] :: 7.9
4) C[C@@H]1C[C@@H](C(=O)Nc2ccc3nccnc3c2)N2C(=O)C=C(c3c(-n4cnnn4)ccc(Cl)c3F)C[C@H]12 (single isomer, unassigned) [ID No. 81] :: 639
5) O=C(Nc1ccc(-c2noc(=O)[nH]2)cc1)[C@@H]1CC[C@@H]2CC(c3c(-n4cnnn4)ccc(Cl)c3F)=CC(=O)N21 [ID No. 17] :: 3.4

Next compound, please.
Name the recorded IC50 for O=C(Nc1ccc2nn(C(F)F)cc2c1)[C@@H]1CC[C@@H]2CC(c3c(-n4cnnn4)ccc(Cl)c3F)=CC(=O)N21 (single isomer, unassigned) [ID No. 23] . 8.3
